The measured values listed here are drawn from paper PMC7411735.

MEASURED TARGET: human SOAT1 (Homo sapiens, UniProt P35610)
Construct: expressed in transfected cells; host or cells: CHO AC29 (SOAT-deficient) cells
Sequence (P35610 whole entry): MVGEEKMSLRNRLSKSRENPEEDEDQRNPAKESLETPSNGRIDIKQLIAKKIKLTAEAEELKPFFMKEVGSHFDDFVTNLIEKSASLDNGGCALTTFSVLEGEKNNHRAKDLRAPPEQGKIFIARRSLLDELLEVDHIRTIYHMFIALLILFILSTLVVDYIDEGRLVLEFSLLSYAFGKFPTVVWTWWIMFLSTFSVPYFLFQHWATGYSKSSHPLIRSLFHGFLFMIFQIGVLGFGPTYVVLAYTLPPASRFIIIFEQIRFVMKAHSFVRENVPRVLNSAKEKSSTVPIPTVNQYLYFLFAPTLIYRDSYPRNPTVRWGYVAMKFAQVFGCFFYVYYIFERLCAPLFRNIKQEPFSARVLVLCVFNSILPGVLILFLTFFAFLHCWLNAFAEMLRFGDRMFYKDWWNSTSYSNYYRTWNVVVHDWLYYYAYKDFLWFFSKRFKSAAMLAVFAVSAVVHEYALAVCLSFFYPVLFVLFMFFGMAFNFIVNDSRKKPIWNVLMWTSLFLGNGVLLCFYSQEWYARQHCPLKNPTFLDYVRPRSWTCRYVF
EXPERIMENT: SOAT1 activity in SOAT1-CHO cells ([14C]CE formation from [1-14C]oleic acid)
Type: cell-based
SETUP CONDITIONS: read-out: IC50 SOAT1; human SOAT1-CHO cells, n ≧ 3
MEASURED PARAMETER: IC50

Input: // returns reported IC50 for input CC(C)=CC1OC2C(OC3CCC4(C)C(C)(O)C(CC5(O)C(=O)Nc6cccc(CC7OC7(C)C)c65)CCC4(O)C34OC24)C(C)(C)O1 (stereo not shown) [Compound 1, Terpendole N]
Output: > 14 µM
